experimental.system: T1, human TL1A (Fitzgerald, Prod. #30R-AT070) (human, UniProt O95150 72-251, limits assumed, biotinylated with EZ-Link Sulfo-NHS-LC-Biotin where used as soluble antigen)
T1 construct: also called TNFSF15; biotinylated human TL1A
T1 sequence (looked up): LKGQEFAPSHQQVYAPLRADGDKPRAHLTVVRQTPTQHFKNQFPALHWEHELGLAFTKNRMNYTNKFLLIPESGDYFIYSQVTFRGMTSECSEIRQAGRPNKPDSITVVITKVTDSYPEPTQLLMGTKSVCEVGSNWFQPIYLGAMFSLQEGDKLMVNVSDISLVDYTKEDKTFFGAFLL
measurement.protocol: capture lift screen and Fab ELISA on coated TL1A
assay.endpoint: binding result

INSERT INTO measurements (binder, assay_endpoint, experimental_result) VALUES
  ('clone 5-1 Fab (12835 framework variant) (Fab, V domains shown, Fab) VH: QVQLVQSGAEVKKPGASVKLSCKASGFDIQDTYMHWVRQAPGQGLEWMGRIDPASGHTKYDPKFQVRVTMTRDTSTSTVYMELSSLRSEDTAVYYCSRSGGLPDVWGQGTTVTVSS VL: EIVLTQSPGTLSLSPGERATLSCRASSSVSYMYWYQQKPGQAPRPWIYATSNLASGVPDRFSGSGSGTDYTLTISRLEPEDFAVYYCQQWSGNPRTFGGGTKLEIK', 'binding result', 'binds'),
  ('21-3 (CDR-grafted HC) Fab (Fab, V domains shown, Fab; also called clone 21-3) VH: QVQLVQSGAEVKKPGASVKVSCKASGFDIQDTYMHWVRQAPGQGLEWMGRIDPASGHTKYDPKFQVRVTMTRDTSTSTVYMELSSLRSEDTAVYYCARSGGLPDVWGQGTTVTVSS VL: EIVLTQSPGTLSLSPGERATLSCRASSSVSYMYWYQQKPGQAPRLLIYATSNLASGVPDRFSGSGSGTDYTLTISRLEPEDFAVYYCQQWSGNPRTFGGGTKLEIK', 'binding result', 'binds');
